Examples of molecules with documented max activation follow.
- systemUnderTest: Nuclear receptor subfamily 1 group I member 2 (Rattus norvegicus)
- protocolDetails: Rat pregnane X receptor (rPXR) activation by small molecules, qHTS assay (AID 1346983); note: % is set by controls: 0 for no effect and ±100 for the full control effect; nearly all actives have a fitted effect of over 20% in size
- conditionParameters: rPXR luciferase reporter cells, One-Glo luminescence, 24 h; hits give high values
Inconclusive results are not listed.
assayReadout: max activation (%)

| molecule | systemUnderTest | unitLabel | measurement |
| --- | --- | --- | --- |
| CC(C)(C)c1ccc(CN2CCN(C(c3ccccc3)c3ccc(Cl)cc3)CC2)cc1 (stereo not drawn) | Nuclear receptor subfamily 1 group I member 2 (Rattus norvegicus) | % | 10.7 |
| OC[C@H]1OC([S-])[C@H](O)[C@@H](O)[C@@H]1O.[Au+] (stereo partly drawn) | Nuclear receptor subfamily 1 group I member 2 (Rattus norvegicus) | % | -6.36 |
| C/C1=C2N=C(/C=C3N=C(/C(C)=C4\[N-][C@@](C)([C@@H]5N=C1[C@](C)(CCC(=O)NCC(C)OP(=O)(O)O[C@H]1[C@@H](O)[C@@H](n6cnc7cc(C)c(C)cc76)O[C@@H]1CO)[C@H]5CC(N)=O)[C@@](C)(CC(N)=O)[C@@H]4CCC(N)=O)[C@@](C)(CC(N)=O)[C@@H]\3CCC(N)=O)C(C)(C)[C@@H]/2CCC(N)=O.CC(=O)O.[Co] (stereo partly drawn) | Nuclear receptor subfamily 1 group I member 2 (Rattus norvegicus) | % | -15.5 |
| NS(=O)(=O)c1cc2c(cc1Cl)NC(Cc1ccccc1)NS2(=O)=O (stereo not drawn) | Nuclear receptor subfamily 1 group I member 2 (Rattus norvegicus) | % | -1.36 |
| C[N+]1(C)[C@@H]2CC(OC(=O)C(O)(c3cccs3)c3cccs3)C[C@H]1[C@@H]1O[C@@H]12 (stereo partly drawn) | Nuclear receptor subfamily 1 group I member 2 (Rattus norvegicus) | % | -1.38 |
| C=CCCCCCCCCC(=O)OC | Nuclear receptor subfamily 1 group I member 2 (Rattus norvegicus) | % | -1.33 |
| Cn1c(=O)c2c(ncn2CCOC(=O)C(C)(C)Oc2ccc(Cl)cc2)n(C)c1=O | Nuclear receptor subfamily 1 group I member 2 (Rattus norvegicus) | % | -1.7 |
| O=C(O)[C@H](CC(=O)N1C[C@H]2CCCC[C@H]2C1)Cc1ccccc1 | Nuclear receptor subfamily 1 group I member 2 (Rattus norvegicus) | % | -2.62 |

====

- protocolDetails: qHTS assay to identify small molecule antagonists of the estrogen receptor alpha (ER-alpha) signaling pathway using the BG1 cell line (AID 743080);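 note: BG1 cells stimulated with 17beta-estradiol alongside compound; nearly all actives have a fitted effect of over 25% in size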
- conditionParameters: BG1Luc4E2 ERE-luciferase antagonist mode, luminescence; series mostly up to 70.3 µM
Inconclusive results are not listed. Activity calls are given as the source filed them. Calls follow the shape of the full dose curve.
Outcome codes: label 1 = active, label 0 = inactive

| compound | classification |
| --- | --- |
| O=C(O)CN(CC(=O)O)CC1=CC2C(=CC1=O)Oc1cc(O)c(CN(CC(=O)O)CC(=O)O)cc1C21OC(=O)c2ccccc21 (stereo not given) | label 0 |
| CCc1ccc2c(c1)N(CC(C)CN(C)C)c1ccccc1S2 (stereo not given) | label 0 |
| CC1(O)CCC(C(C)(C)O)CC1 (stereo not given) | label 0 |
| NCCCC[C@H](N)C(=O)O | label 0 |
| O=C(O)COc1ccc(CCNS(=O)(=O)c2ccccc2)s1 | label 0 |
| O=C(CCCCCCCCCCCCC1CCCC1)Nc1ccc(S(=O)(=O)c2ccc(NC(=O)CCCCCCCCCCCCC3CCCC3)cc2)cc1 | label 0 |
| CC(=O)N[C@@H](CC(=O)N[C@@H](CCC(=O)O)C(=O)O)C(=O)O | label 0 |
| CC(C(=O)O)c1ccc(N2Cc3ccccc3C2=O)cc1 (stereo not given) | label 1 |
| CCCCOC(=O)C(=O)Nc1cccc(-c2nn[nH]n2)c1 | label 0 |
| O=C(O)c1c(Cl)c(Cl)c(Cl)c(Cl)c1-c1c2cc(I)c(=O)c(I)c-2oc2c(I)c(O)c(I)cc12 | label 0 |
| COc1ccc(C2(C#N)CCC(C(=O)O)CC2)cc1OC1CCCC1 (stereo not given) | label 0 |
| CC(C)(CO)[C@@H](O)C(=O)NCCCC(=O)O | label 0 |
| C#CCOc1ccc2c(C)cc(=O)oc2c1 | label 0 |
| CC(O)[C@@H]1NC(=O)[C@H](Cc2ccccc2)NC(=O)[C@H](C(C)O)NC(=O)[C@H](CCCCN)NC(=O)[C@H](Cc2c[nH]c3ccccc23)NC(=O)[C@H](Cc2ccccc2)NC(=O)[C@H](Cc2ccccc2)NC(=O)[C@H](CC(N)=O)NC(=O)[C@H](CCCCN)NC(=O)[C@@H](NC(=O)CNC(=O)[C@H](C)N)CSSC[C@@H](C(=O)O)NC(=O)[C@H](CO)NC1=O (stereo not given in full) | label 0 |
| CCCCCCCCCCCCCCCC(=O)OC[C@@H](O)[C@H]1OC[C@H](O)[C@H]1O | label 0 |
| COC(F)(F)C(Cl)Cl | label 0 |
| C#C[C@]1(O)CC[C@H]2[C@@H]3CCC4=C(CCC(=O)C4)[C@H]3CC[C@@]21C | label 0 |
| O=P(O)(O)OC[C@H](O)CO | label 0 |
| NCc1ccccc1CC(=O)N[C@@H]1C(=O)N2C(C(=O)O)=C(CSc3nnnn3CC(=O)O)CS[C@H]12 | label 0 |
| O=C1O[C@H]2[C@H](O)[C@@H]1OC(O)[C@H]2O (stereo not given in full) | label 0 |

====

- protocolDetails: qHTS assay to identify small molecule phospholipidosis (PLD) inducers (AID 1259344); note: % is set by controls: 0 for no effect and ±100 for the full control effect
- conditionParameters: HepG2 phospholipidosis, LipidTOX Red imaging, 24 h; series mostly up to 38.3 µM
Inconclusive results are not listed. The source made the active and inactive calls. The call rests on the fitted dose curve; in most records, active means well fitted activation curve with a large enough effect; inconclusive means small, poorly fitted or top-dose-only effect; inactive means flat fitted curve, though single readings scatter. Non-standard residues stand in square brackets, D forms with d. Residues, ends and D or L forms follow the SMILES beside them. pGlu = O=C1CC[C@@H](C(=O)O)N1

| molecule | PLD induction |
| --- | --- |
| NC[C@@H]1O[C@H](O[C@H]2[C@@H](O)[C@H](O[C@@H]3[C@@H](O)[C@H](N)C[C@H](N)[C@H]3O[C@H]3O[C@H](CN)[C@@H](O)[C@H](O)[C@H]3N)O[C@@H]2CO)[C@H](N)[C@@H](O)[C@@H]1O | inactive |
| CC(=O)Oc1c(C)cc(OCC(O)CNC(C)C)c(C)c1C (stereo not drawn) | inactive |
| CC[C@H](C)[C@H](NC(=O)[C@H](Cc1ccccc1)NC(=O)[C@H](C)NC(=O)[C@H](CC(=O)O)NC(=O)[C@H](CCCCN)NC(=O)[C@H](CO)NC(=O)[C@@H]1CCCN1C(=O)[C@@H]1CCC(=O)N1)C(=O)NCC(=O)N[C@@H](CC(C)C)C(=O)N[C@@H](CCSC)C(N)=O ([pGlu]PSKDAFIGLM-NH2) | inactive |

====

- systemUnderTest: Estrogen receptor (Homo sapiens) (UniProt P03372)
- Sequence (P03372 whole entry, looked up): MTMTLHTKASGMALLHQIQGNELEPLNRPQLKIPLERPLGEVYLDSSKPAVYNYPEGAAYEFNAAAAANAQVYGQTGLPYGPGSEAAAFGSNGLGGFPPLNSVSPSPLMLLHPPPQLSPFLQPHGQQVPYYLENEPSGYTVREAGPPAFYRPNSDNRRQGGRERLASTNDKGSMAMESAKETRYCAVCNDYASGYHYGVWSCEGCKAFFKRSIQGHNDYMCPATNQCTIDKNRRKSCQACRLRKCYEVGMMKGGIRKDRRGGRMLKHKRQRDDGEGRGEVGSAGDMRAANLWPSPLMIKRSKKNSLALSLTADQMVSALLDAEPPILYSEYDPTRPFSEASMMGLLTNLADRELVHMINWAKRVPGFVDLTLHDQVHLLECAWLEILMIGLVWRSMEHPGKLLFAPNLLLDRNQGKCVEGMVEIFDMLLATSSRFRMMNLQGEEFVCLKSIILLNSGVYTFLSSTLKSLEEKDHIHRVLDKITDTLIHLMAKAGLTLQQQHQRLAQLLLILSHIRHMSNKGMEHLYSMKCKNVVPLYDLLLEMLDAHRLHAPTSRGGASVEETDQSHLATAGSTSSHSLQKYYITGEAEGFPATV
- protocolDetails: qHTS assay to identify small molecule antagonists of the estrogen receptor alpha (ER-alpha) signaling pathway (AID 743069); note: % is set by controls: 0 for no effect and ±100 for the full control effect
- conditionParameters: HEK293 ER-alpha-UAS-bla, beta-lactamase ratio, antagonist mode; series mostly up to 69.4 µM
Records with an inconclusive call do not appear. Activity calls are given as the source filed them. The call rests on the fitted dose curve; in most records, active means well fitted curve in the direction sought with a large enough effect in the signal ratio in the repeat runs (not every such curve was filed as active); inconclusive means weak or mixed curves, or effect the other way; inactive means no such curve, though single readings can be large or run the other way; the % refers to the signal ratio.
assayReadout: outcome

| compound | measurement |
| --- | --- |
| CCC(Cc1c(I)cc(I)c(O)c1I)C(=O)O (stereo not drawn) | inactive |
| C[N+]1(C)[C@@H]2CC(OC(=O)C(O)(c3cccs3)c3cccs3)C[C@H]1[C@@H]1O[C@@H]12 (stereo partly drawn) | inactive |
| CCN(CC)CCOC(=O)c1cccnc1 | inactive |
| CCN(CC)CCCC(C)Nc1cc(/C=C/c2ccccc2Cl)nc2cc(Cl)ccc12 (stereo not drawn) | inactive |
| O=C(O)c1cccc(/C=C2/C[C@@H]3[C@@H](/C=C/[C@@H](O)C4CCCCC4)[C@H](O)C[C@@H]3O2)c1 | inactive |
| C=CC1=C(C)C2=CC3=NC(=C(CC(=O)[O-])C4=NC(=C(C)C4=C([O-])[O-])C=c4[n-]c(c(C)c4CC)=CC1=N2)C(CCC(=O)[O-])C3C.[Cu+2].[Na+].[Na+].[Na+] (stereo not drawn) | inactive |
| COc1cc(NCCCC(C)N)c2ncccc2c1 (stereo not drawn) | inactive |
| CNC[C@@H]1CC[C@@H](N)[C@@H](O[C@H]2[C@H](O)[C@@H](O[C@H]3OC[C@](C)(O)[C@H](NC)[C@H]3O)[C@H](N)C[C@@H]2N)O1 | inactive |

====

- systemUnderTest: Glucocorticoid receptor (Homo sapiens) (UniProt P04150)
- Sequence (P04150 whole entry, looked up): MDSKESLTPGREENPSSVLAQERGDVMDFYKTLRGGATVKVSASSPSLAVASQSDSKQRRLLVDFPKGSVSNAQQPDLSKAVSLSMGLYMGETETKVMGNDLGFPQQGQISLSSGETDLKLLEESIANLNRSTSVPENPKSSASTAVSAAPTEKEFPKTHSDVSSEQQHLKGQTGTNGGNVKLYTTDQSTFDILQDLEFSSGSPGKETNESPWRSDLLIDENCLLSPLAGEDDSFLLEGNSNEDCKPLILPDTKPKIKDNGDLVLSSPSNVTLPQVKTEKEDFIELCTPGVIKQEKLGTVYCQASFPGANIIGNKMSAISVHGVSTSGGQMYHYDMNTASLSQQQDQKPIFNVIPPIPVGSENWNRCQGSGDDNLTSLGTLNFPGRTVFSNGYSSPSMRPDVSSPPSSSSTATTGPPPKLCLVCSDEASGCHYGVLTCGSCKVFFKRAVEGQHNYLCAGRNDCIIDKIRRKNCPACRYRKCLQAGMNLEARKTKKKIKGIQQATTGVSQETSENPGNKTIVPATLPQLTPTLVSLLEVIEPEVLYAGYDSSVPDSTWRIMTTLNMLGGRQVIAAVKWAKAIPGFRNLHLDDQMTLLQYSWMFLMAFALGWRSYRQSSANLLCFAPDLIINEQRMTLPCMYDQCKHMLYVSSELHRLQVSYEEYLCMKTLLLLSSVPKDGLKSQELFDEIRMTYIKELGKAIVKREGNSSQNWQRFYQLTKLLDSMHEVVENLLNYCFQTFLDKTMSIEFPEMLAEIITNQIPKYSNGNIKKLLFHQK
- protocolDetails: qHTS assay to identify small molecule agonists of the glucocorticoid receptor (GR) signaling pathway (AID 720691); for activation: % is set by controls: 0 for no effect and ±100 for the full control effect
- conditionParameters: GR-bla HeLa, beta-lactamase reporter ratio, 18 h
Inconclusive results are not listed. Activity calls are given as the source filed them. Calls come from the whole dose curve; as a rule, active = well fitted activation curve with a large enough effect in the signal ratio in the repeat runs (not every such curve was filed as active); inconclusive = weak or mixed curves, or effect the other way; inactive = no such curve, though single readings can be large or run the other way; the % refers to the signal ratio.
Outcome codes: true (active), false (inactive)

| compound | classification |
| --- | --- |
| CC(CN1c2ccccc2Sc2cccnc21)N(C)C (centres undefined) | false |
| CC1=C(/C=C/C(C)=C/C=C/C(C)=C/C=C/C=C(C)/C=C/C=C(C)/C=C/C2=C(C)C[C@@H](O)CC2(C)C)C(C)(C)C[C@H](O)C1 | false |
| COC(=O)[C@H]1[C@H]2C[C@@H]3c4[nH]c5cc(OC)ccc5c4CCN3C[C@H]2C[C@H](OC)[C@@H]1OC | false |
| C[C@H]1[C@@H](OC(=O)CCC(=O)O)O[C@@H]2OC3(C)CC[C@H]4[C@H](C)CC[C@@H]1[C@@]24OO3 | false |
| O=C(OCc1ccccc1)c1cccnc1 | false |
| CCCN(CC)C(CC)C(=O)Nc1c(C)cccc1C (centres undefined) | false |
| CC(C)=CCC/C(C)=C/C=C/C(C)=C/C=C/C(C)=C/C=C/C=C(C)/C=C/C=C(C)/C=C/C=C(\C)CCC=C(C)C | false |
| O=C(O)c1cc(N=Nc2ccc(O)c(C(=O)O)c2)ccc1O | false |
| CCC(=O)O[C@]1(C(=O)CCl)[C@@H](C)C[C@H]2[C@@H]3C[C@H](F)C4=CC(=O)C=C[C@]4(C)[C@@]3(F)[C@@H](O)C[C@@]21C | true |
